Experiment: self-splicing fitness, log relative to wild type (ln ratio); higher = more splicing; Tetrahymena group I intron in knt gene, E. coli kanamycin selection, DiMSum; sequences stand for … in CUCUCU…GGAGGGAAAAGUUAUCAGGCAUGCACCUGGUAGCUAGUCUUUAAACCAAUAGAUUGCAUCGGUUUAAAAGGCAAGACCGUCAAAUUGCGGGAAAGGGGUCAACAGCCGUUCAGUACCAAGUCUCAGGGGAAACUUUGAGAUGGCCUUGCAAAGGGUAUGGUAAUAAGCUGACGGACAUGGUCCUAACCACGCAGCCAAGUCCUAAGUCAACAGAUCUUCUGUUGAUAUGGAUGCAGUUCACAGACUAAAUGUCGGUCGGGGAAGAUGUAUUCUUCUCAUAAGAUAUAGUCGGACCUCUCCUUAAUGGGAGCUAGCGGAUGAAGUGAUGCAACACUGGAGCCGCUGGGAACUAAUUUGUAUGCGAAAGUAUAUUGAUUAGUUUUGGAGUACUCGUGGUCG;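 also: selection with 25 µg/mL kanamycin versus none on LB agar overnight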
Conditions: 30 °C
Threshold rule: self-splicing fitness (ln) greater than or equal to -1 is Y; below that, N.

*Q* Hi team, for `CGUCAGCAAUAUUACGGCAU` , is the recorded self-splicing fitness (ln) at or above -1?
*A* Y

====

Experiment: self-splicing fitness, log relative to wild type (ln ratio); higher = more splicing; Tetrahymena group I intron in knt gene, E. coli kanamycin selection, DiMSum; sequences stand for … in CUCUCU…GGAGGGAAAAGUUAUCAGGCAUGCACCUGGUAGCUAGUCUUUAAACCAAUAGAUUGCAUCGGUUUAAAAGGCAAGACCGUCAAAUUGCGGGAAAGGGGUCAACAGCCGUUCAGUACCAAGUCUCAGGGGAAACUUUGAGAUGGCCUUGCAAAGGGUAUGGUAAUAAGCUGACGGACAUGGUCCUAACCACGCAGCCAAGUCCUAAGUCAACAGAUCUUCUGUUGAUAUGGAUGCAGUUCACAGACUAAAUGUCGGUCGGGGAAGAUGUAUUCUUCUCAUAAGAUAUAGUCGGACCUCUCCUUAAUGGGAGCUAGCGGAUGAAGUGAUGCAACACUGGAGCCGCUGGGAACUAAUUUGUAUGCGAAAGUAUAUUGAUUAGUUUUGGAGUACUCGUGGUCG
Conditions: 30 °C
Threshold rule: self-splicing fitness (ln) greater than or equal to -3 is true (1); below that, false (0).

Solved cases below.
Macromolecule Sequence: CUCGAGCAAUAUUACGUAAA
Classification: false (0)
--
Macromolecule Sequence: UGUGAGCAAUAUUACGGUCA
Classification: true (1)
--
Macromolecule Sequence: ACGGAGCAAUAUUACGGUUU
Classification: false (0)

*Q* Hi team, for `UGCAAGCAAUAUUACGUACA` , is the recorded self-splicing fitness (ln) at or above -3?
*A* true (1)

*Q* Hi team, for `GGGCAGCAAUAUUACGGCGU` , is the recorded self-splicing fitness (ln) at or above -3?
*A* true (1)

*Q* Hi team, for `CAUUAGCAAUAUUACGAAUC` , is the recorded self-splicing fitness (ln) at or above -3?
*A* false (0)

*Q* Hi team, for `UGUUAGCAAUAUUACGAGUG` , is the recorded self-splicing fitness (ln) at or above -3?
*A* true (1)

====

Assay: self-splicing fitness, log relative to wild type (ln ratio); higher = more splicing; Tetrahymena group I intron in knt gene, E. coli kanamycin selection, DiMSum; sequences stand for … in CUCUCU…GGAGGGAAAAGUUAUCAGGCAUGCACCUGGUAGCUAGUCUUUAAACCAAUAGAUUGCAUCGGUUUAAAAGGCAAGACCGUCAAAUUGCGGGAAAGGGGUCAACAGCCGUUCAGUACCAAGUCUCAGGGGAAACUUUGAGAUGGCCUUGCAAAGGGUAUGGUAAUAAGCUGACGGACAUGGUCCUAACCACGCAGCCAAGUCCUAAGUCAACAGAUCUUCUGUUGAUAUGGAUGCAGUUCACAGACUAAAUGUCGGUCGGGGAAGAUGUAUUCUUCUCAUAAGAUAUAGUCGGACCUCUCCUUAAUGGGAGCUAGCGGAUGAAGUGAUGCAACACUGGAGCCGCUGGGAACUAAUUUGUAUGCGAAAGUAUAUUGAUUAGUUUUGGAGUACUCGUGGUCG
Conditions: 30 °C
Property Label: self-splicing fitness (ln)
Give bare numbers.

For orientation, consider the following solved cases.
Macromolecule Sequence: ACAUAGCAAUAUUACGUCCG
self-splicing fitness (ln): -1.62
//
Macromolecule Sequence: GGGGAGCAAUAUUACGAUUU
self-splicing fitness (ln): -2.01
//
Macromolecule Sequence: CCUCAGCAAUAUUACGCGGG
self-splicing fitness (ln): -4.06
//
Macromolecule Sequence: CGCGAGCAAUAUUACGGAAC
self-splicing fitness (ln): -3.86
//
Macromolecule Sequence: UCCGAGCAAUAUUACGUAUU
self-splicing fitness (ln): -1.95

// for each sequence below, give its self-splicing fitness (ln)
1. CAAAAGCAAUAUUACGGCCU
2. CAAUAGCAAUAUUACGAUCC
3. AAAGAGCAAUAUUACGUUUG
4. AAAAAGCAAUAUUACGGCUA
5. GUAGAGCAAUAUUACGCAAC
6. ACAUAGCAAUAUUACGCCAG

*A*
1: -1.44; 2: -2.68; 3: -2.74; 4: -0.166; 5: -1.79; 6: -2.65

// for each sequence below, give its self-splicing fitness (ln)
1. CGCUAGCAAUAUUACGUGGC
2. GAACAGCAAUAUUACGGUCA
3. AUUCAGCAAUAUUACGUUUC
4. GACGAGCAAUAUUACGUGAG
5. CAGUAGCAAUAUUACGUCUU

*A*
-2.89
-0.702
-3.75
-2.7
-1.17
